- assay overview: protein stability index of a GFP-peptide fusion (GPS, HEK-293T) (PSI 1-6); higher = more stable;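 note: 24-mer peptide tiles fused after GFP, lentivirally expressed, FACS-sorted into six equal bins by GFP/DsRed ratio, decoded by Illumina sequencing, PSI is the read-weighted mean bin number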
- condition label: treatment: DMSO; c terminus: a fixed tail appended
measured quantity: protein stability index

Some entries whose results are on file:
# sequence record, protein stability index
measured = [
    ("NIPERASGPEGNLNQIVTEPDANF [FAM104B]", 5.35),
    ("EKYKTQIDHYVGIARDQTKSIVEK [RTN3]", 4.07),
    ("ENEEMEQPMQNGEEDRPLGGGEGH [BEX3]", 5.42),
    ("KQPRKKRGRYRQYNSEILEEAISV [LCOR]", 3.92),
    ("MFRNHLCLVFELLSYNLYDLLRNT [DYRK1B]", 2.54),
]

Below are 3 sequences. Give each one its protein stability index.
1. LAQLLDTLLAIGTKLPENQAIQMR [INTS4]
2. MFQGWNCGDYFPDGITNGASWYSL [CPN1]
3. HEALSRLWELCHLWLRPEVHTKEQ [ZNF396]

A)
1: 3.12; 2: 2.7; 3: 2.11

Below are 6 sequences. Give each one its protein stability index.
1. VSAIIWEGNECKKMDMSVLEISGI [PHTF1]
2. HGSPQLGEGMFQHQTSVAHQPVVR [TBX5]
3. TVNALEIELQAQHSMRNSLESTLA [KRT36]
4. LGGRALMNCLPSNRTLWRLDLAGN [LRRC45]
5. SLTVPLLGAMMLLESPIDPQPLSF [APMAP]
6. TQKFTDMVATANNRQTFVNSAIRF [CHIT1]

A)
2.11
4.19
3.38
2.5
2.46
2.85

====

- assay overview: protein stability index of a GFP-peptide fusion (GPS, HEK-293T) (PSI 1-6); higher = more stable
- condition label: treatment: DMSO; c terminus: a fixed tail appended
protein stability index of 3 or higher: 1.0. Under 3: 0.0.

Example cases with answers are listed next.
# sequence record, label class
measured = [
    ("SALEDQGSNPSSSNSSQDSLHKGA [PPFIA4]", 1.0),
    ("LSPLSLAQYDSWPHYPEYFQQPAP [LOXL2]", 0.0),
    ("VLADLHSAEQLKAQAIDFINRCSV [SPOPL]", 0.0),
    ("PTYSDFCQFRPPVRVNDGGGSHPS [VDR]", 1.0),
]

Q) Is protein stability index at least 3? Consider KPLLGSAVLGLLLVLAAVVAWCYY [MYORG]
A) 0.0

Q) Is protein stability index at least 3? Consider PEPWPGGCTGDEAESRGHSKGWGR [MYCL]
A) 1.0

Q) Is protein stability index at least 3? Consider LDSIIDDRVILSSSTSCLMPSKLF [CRYL1]
A) 0.0

Q) Is protein stability index at least 3? Consider PKDLDPSLCTHLIYAFAGMTNHQL [CHIT1]
A) 0.0

Q) Is protein stability index at least 3? Consider KVRQLERDNAELENLIRERSQQQE [KRT33B]
A) 1.0

Q) Is protein stability index at least 3? Consider LQNEVPPQPDPVFLEALSSRYLGD [SERTAD3]
A) 1.0

Q) Is protein stability index at least 3? Consider DEEVSGSSKTITAEIPDGPPVVAH [C18orf25]
A) 1.0
